SUBJECT_OF_TEST: human glucagon-like peptide 1 receptor (GLP-1R) (human, UniProt P43220 24-463)
Sequence (P43220 24-463): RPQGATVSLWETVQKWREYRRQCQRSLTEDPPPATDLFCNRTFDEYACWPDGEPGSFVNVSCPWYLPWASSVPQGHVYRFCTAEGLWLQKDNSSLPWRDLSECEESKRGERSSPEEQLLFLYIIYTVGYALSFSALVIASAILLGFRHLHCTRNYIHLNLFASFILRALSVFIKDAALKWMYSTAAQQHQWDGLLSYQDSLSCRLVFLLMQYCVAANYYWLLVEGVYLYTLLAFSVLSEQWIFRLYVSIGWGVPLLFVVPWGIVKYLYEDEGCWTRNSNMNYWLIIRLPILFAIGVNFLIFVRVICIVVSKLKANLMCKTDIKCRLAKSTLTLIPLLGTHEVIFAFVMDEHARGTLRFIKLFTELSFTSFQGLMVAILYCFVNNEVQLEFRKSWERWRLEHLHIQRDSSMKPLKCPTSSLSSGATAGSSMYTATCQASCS
PROTOCOL_NOTES: cell-based or functional assay
Measured EC50 (nM) GLP-1R, cAMP formation accompanies every entry in the list below.
Just the number please, in nM, no unit attached.

Some solved entries appear below for comparison.
| BINDER | REPORTED |
| --- | --- |
| HXQGTFTSDYSKYLDSKAAHDFVEWLLSA (Aib at position 2; K(Octadecanoyl-isoGlu) at position 17; C-terminal amide (NH2)) [Compound 25] | 0.069 |
| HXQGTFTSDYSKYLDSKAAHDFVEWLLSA (Aib at position 2; K(Hexadecanoyl-[3-Aminopropanoyl]) at position 17; C-terminal amide (NH2)) [Compound 31] | 0.103 |
| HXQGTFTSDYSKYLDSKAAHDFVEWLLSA (Aib at position 2; K(Hexadecanoyl-E) (Hexadecanoyl-αGlu) at position 17; C-terminal amide (NH2)) [Compound 28] | 0.149 |
| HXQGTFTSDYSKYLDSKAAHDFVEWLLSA (Aib at position 2; K(Hexadecanoyl-isoLys) at position 17; C-terminal amide (NH2)) [Compound 30] | 0.132 |

Report EC50 (nM) GLP-1R, cAMP formation for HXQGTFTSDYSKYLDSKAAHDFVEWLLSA (Aib at position 2; K([2-Butyloctanoyl]-isoGlu) at position 17; C-terminal amide (NH2)) [Compound 24] please.
0.161
